Test system: Mycobacterium tuberculosis variant bovis
Experiment description: Antimycobacterial activity against Mycobacterium bovis BCG ATCC 35734 after 5 days by broth dilution method
Format: functional
Condition: ATCC 35734, 120 h
The entries below come with measured MIC90 values attached.
Give the quantity in µM, number only.

See these solved cases before continuing.
Smiles string	MIC90 / µM
CCCCCCCCn1cc(CNC23CC4CC(CC(C4)C2)C3)c2cccc(OC)c21	8
CCCCCCCCn1cc(CN2CCCCCC2)c2cccc(F)c21	8
CCCCCCCCn1cc(CN2CCC3(CC2)OCCO3)c2c(F)cccc21	6
Fc1ccc2c(c1)c(CN1CCCCC1)cn2CCCOc1ccccc1	50
CC(C)=CCC/C(C)=C/Cn1cc(CN2CCC(C)CC2)c2cc(F)ccc21	6
CC(C)=CCC/C(C)=C/Cn1cc(CN2CCCCC2)c2ccccc21	6

Value lookup for MIC90; key = `CCCCCCCCn1cc(CN2CCCCC2)c2cc(F)ccc21`
11

Value lookup for MIC90; key = `CCCCCCCCn1cc(CN2CCC(C)CC2)c2c(OC)cccc21`
18

Value lookup for MIC90; key = `CC(C)=CCC/C(C)=C/Cn1cc(CN2CCSCC2)c2cc(F)ccc21`
23

====

The entries below come with measured MIC90 values attached.
System: Mycobacterium tuberculosis variant bovis
Experiment description: Antimycobacterial activity against Mycobacterium bovis BCG ATCC 35734 after 5 days by broth dilution method
Format: functional
Condition: ATCC 35734, 120 h
Give the quantity in µM, number only.

Smiles string	Measured endpoint	Experimental result
CCN(CC)Cc1cn(C/C=C(\C)CCC=C(C)C)c2ccc(F)cc12	MIC90	24
CCCCCCCCn1cc(CN(CCC)CCC)c2cc(F)ccc21	MIC90	35
CC(C)=CCC/C(C)=C/Cn1cc(CN2CCCC2)c2cc(F)ccc21	MIC90	25
CCCCCCCCn1cc(CN(C)C)c2cc(F)ccc21	MIC90	20
CCCCCCCCn1cc(CN2CCC(C)CC2)c2cccc(F)c21	MIC90	6

// next item, MIC90 requested
Value lookup for MIC90; key = `CCCCCCCCn1cc(CN(CC)CCC)c2cc(F)ccc21`
39

====

System: Mycobacterium tuberculosis variant bovis
Experiment description: Antimycobacterial activity against Mycobacterium bovis BCG ATCC 35734 after 5 days by broth dilution method
Type: functional
Condition: ATCC 35734, 120 h
The entries below come with measured MIC90 values attached.

See these solved cases before continuing.
Smiles string	MIC90
CCCCCCCCn1cc(CN2CCCCC2)c2cc(OC)ccc21	7.5 to 8 µM
Fc1ccc2c(c1)c(CN1CCCCC1)cn2Cc1ccccc1	> 50 µM
CCCCCCCCn1cc(CN2CCC3(CC2)OCCO3)c2ccc(F)cc21	5 µM
CCCCCCCCn1cc(CNC(C)C)c2cc(F)ccc21	26 µM
CCCCCCCCn1cc(CN2CCCCCC2)c2ccc(OC)cc21	6 µM

Value lookup for MIC90; key = `CCCCCCCCn1cc(CN2CCC3(CC2)OCCO3)c2cc(F)ccc21`
5 µM

====

Test system: Mycobacterium tuberculosis variant bovis
Experiment description: Antimycobacterial activity against Mycobacterium bovis BCG ATCC 35734 after 5 days by broth dilution method
Assay type: functional
Condition: ATCC 35734, 120 h
Note to self: MIC90 under 20 µM means rule met, ties and anything higher get rule not met.

Consider the worked cases shown below.
Smiles string	Cat
CC(C)=CCC/C(C)=C/Cn1cc(CN2CCCCC2)c2cc(Cl)ccc21	rule met
Fc1ccc2c(c1)c(CN1CCCCC1)cn2CCC1CCCCC1	rule not met

Quick check: does `CCCCCCCCn1cc(CN2CCN(CC)CC2)c2cc(F)ccc21` have MIC90 under 20 µM?
rule not met

Quick check: does `CCCCCCCCCCn1cc(CN2CCCCCC2)c2c(F)cccc21` have MIC90 under 20 µM?
rule met

Quick check: does `CCCCCCCCn1cc(CN2CCC(C)CC2)c2c(F)cccc21` have MIC90 under 20 µM?
rule met

Quick check: does `CC(C)=CCC/C(C)=C/Cn1cc(CN2CCCCC2)c2cc(F)ccc21` have MIC90 under 20 µM?
rule met

Quick check: does `CCCCCCCCn1cc(CN(CC)CC)c2cc(F)ccc21` have MIC90 under 20 µM?
rule not met

Quick check: does `CCCCCCCCn1cc(CN2CCC(C)CC2)c2cc(F)ccc21` have MIC90 under 20 µM?
rule met

====

Test system: Mycobacterium tuberculosis variant bovis
Experiment description: Antimycobacterial activity against Mycobacterium bovis BCG ATCC 35734 after 5 days by broth dilution method
Assay type: functional
Condition: ATCC 35734, 120 h
Measured endpoint: MIC90 (µM)
Give the quantity in µM, number only.

See these solved cases before continuing.
Smiles string	MIC90 / µM
CCCCCCCCn1cc(CN2CCC3(CC2)OCCO3)c2c(OC)cccc21	9
CCCCCCCCn1cc(CN2CCCCCC2)c2c(F)cccc21	6
CC(C)=CCC/C(C)=C/Cn1cc(CNC23CC4CC(CC(C4)C2)C3)c2cc(F)ccc21	25.5

// next item, MIC90 requested
Value lookup for MIC90; key = `CC(C)=CCC/C(C)=C/Cn1cc(CN2CCN(C)CC2)c2cc(F)ccc21`
23

====

Tested on: Mycobacterium tuberculosis variant bovis
Experiment description: Antimycobacterial activity against Mycobacterium bovis BCG ATCC 35734 after 5 days by broth dilution method
Assay type: functional
Condition: ATCC 35734, 120 h
Measured endpoint: MIC90

See these solved cases before continuing.
Smiles string	MIC90
CCCCNC(=O)Cn1cc(CN2CCCCC2)c2cc(F)ccc21	> 50 µM
Fc1cccc2[nH]cc(CN3CCCCCC3)c12	> 50 µM

Value lookup for MIC90; key = `O=C(Cn1cc(CN2CCCCC2)c2cc(F)ccc21)NC1CC1`
> 50 µM
